Provenance of the data: patent US11286268B1

- Test System: recombinant eIF4E (Homo sapiens (Human), UniProt P06730)
- Sequence (P06730 whole entry): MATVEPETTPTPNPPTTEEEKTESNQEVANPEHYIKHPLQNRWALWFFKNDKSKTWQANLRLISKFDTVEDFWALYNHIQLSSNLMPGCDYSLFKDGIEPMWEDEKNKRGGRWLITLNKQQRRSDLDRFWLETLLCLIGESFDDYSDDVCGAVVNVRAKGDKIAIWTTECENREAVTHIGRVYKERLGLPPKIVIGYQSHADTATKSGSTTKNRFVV
- Procedure Summary: Fluorescence polarization competition assay for eIF4E binding potency
- Measurement Conditions: fluorescence polarization competition, 75 nM recombinant eIF4E, 20 nM EDA-m7GDP-ATTO-550; IC50 class; read-out: elF4E FP
Each entry below lists one item and its recorded IC50 value.
Measure Name: IC50

N#Cc1cccc2nc(C(F)F)n(CCOc3ccc(Cl)cc3-c3ccc(C(=O)O)c(C(=O)O)c3)c(=O)c12 | < 50 nM
Cc1nc2cnc(N(C)[C@H]3CC[C@@H](N4CC(F)(F)C4)CC3)c(C#N)c2c(=O)n1CC#Cc1ccc(Cl)cc1-c1ccnc2c(C(=O)O)csc12 | < 50 nM
Cc1cc(-c2cc(Cl)ccc2OCCn2c(C)nc3cc(C(F)(F)F)c(-c4cc(C)n(C)n4)c(C#N)c3c2=O)c2scc(C(=O)O)c2n1 | < 50 nM
Cc1nc2cc(C(F)(F)F)cc(C#N)c2c(=O)n1CCCc1ccc(Cl)cc1-c1cccc(C(=O)O)c1 | 50 to 1000 nM
Cc1cc(-c2cc(Cl)ccc2OCCn2c(C)nc3c(F)cc(C(F)F)c(C#N)c3c2=O)c2scc(C(=O)O)c2n1 | < 50 nM
Cc1cc(-c2cc(Cl)ccc2OCCn2c(C)nc3cc(Cl)c(C(F)F)c(C#N)c3c2=O)c2scc(C(=O)O)c2n1 | < 50 nM
Cc1nc2cc(C(F)(F)F)c(N3CCN(CC(F)F)CC3)c(C#N)c2c(=O)n1CCOc1ccc(Cl)cc1-c1ccnc2c(C(=O)O)csc12 | < 50 nM
CCc1cc(-c2c(C(F)(F)F)cc3nc(C)n(CCOc4ccc(Cl)cc4-c4cc(C)nc5c(C(=O)O)csc45)c(=O)c3c2C#N)ccn1 | < 50 nM
Cc1nc2cc(Cl)c(Cl)c(C#N)c2c(=O)n1CC#Cc1ccc(Cl)cc1-c1ccnc2c(C(=O)O)csc12 | 50 to 1000 nM
Cc1cc(-c2cc(Cl)ccc2OCCn2c(C)nc3ccc(N4CCN(C)CC4)nc3c2=O)c2scc(C(=O)O)c2n1 | 50 to 1000 nM
CCc1cc(-c2cc(Cl)ccc2OCCn2c(C)nc3cnc(N4CCN(C)C5CC54)c(C#N)c3c2=O)c2scc(C(=O)O)c2n1 (stereo not shown) | < 50 nM
Cc1ccc(-c2cc(Cl)ccc2OCCn2c(C)nc3cc(C(F)(F)F)c(CN4CCN(C)CC4)c(C#N)c3c2=O)c2scc(C(=O)O)c12 | < 50 nM
Cc1nc2cc(C(F)(F)F)c(CN3CCCCC3)c(C#N)c2c(=O)n1CCOc1ccc(Cl)cc1-c1ccnc2c(C(=O)O)csc12 | < 50 nM

###

- Test System: recombinant eIF4E (Homo sapiens (Human))
- Procedure Summary: Fluorescence polarization competition assay for eIF4E binding potency
- Measurement Conditions: fluorescence polarization competition, 75 nM recombinant eIF4E, 20 nM EDA-m7GDP-ATTO-550; IC50 class; read-out: elF4E FP
pIC50: −log10 of the molar value.
Each entry below lists one item and its recorded pIC50 value.
Measure Name: pIC50

Cc1nc2cc(C(F)(F)F)cc(C#N)c2c(=O)n1CCOc1ccc(Cl)cc1-c1ccnc2c1CCC2C(=O)O (stereo not drawn) [compound 496] | < 6.00
Cc1nc2cc(C(F)(F)F)c(CN3CCN(C)CC3)c(C#N)c2c(=O)n1CCOc1ccc(Cl)cc1-c1cc(CF)nc2c(C(=O)O)csc12 [compound 645] | > 7.30
O=C(O)c1cccc(-c2cc(Cl)ccc2OCCn2cnc3cccnc3c2=O)c1 [compound 21] | 6.00 to 7.30
Cc1cc(-c2cc(Cl)ccc2OCCn2c(C)nc3cc(C(F)(F)F)c(N4CCN(C)CC4=O)c(C#N)c3c2=O)c2scc(C(=O)O)c2n1 [compound 1075] | > 7.30
Cc1cc(-c2cc(Cl)ccc2OCCn2c(C)nc3cnc(-c4cc(Cl)ccc4C)c(C#N)c3c2=O)c2scc(C(=O)O)c2n1 [compound 953] | > 7.30
Cc1nc2cnc(N3CCC4(CC3)CN(CC(F)F)C4)c(C#N)c2c(=O)n1CC#Cc1ccc(Cl)cc1-c1ccnc2c(C(=O)O)csc12 [compound 1136] | > 7.30
Cc1nc2cc(CCN(C)C)cc(C#N)c2c(=O)n1CCOc1ccc(Cl)cc1-c1ccnc2c(C(=O)O)csc12 [compound 513] | > 7.30
Cc1cc(-c2cc(Cl)ccc2OCCn2c(C)nc3ccc(OC(F)(F)F)c(C#N)c3c2=O)c2scc(C(=O)O)c2n1 [compound 583] | > 7.30
Cn1cc(CCOc2ccc(Cl)cc2-c2ccnc3c(C(=O)O)csc23)c(=O)c2c(C#N)cc(C(F)(F)F)cc21 [compound 353] | 6.00 to 7.30
Cc1cc(-c2cc(Cl)ccc2OCCn2c(C)nc3cnc(CCF)c(C#N)c3c2=O)c2scc(C(=O)O)c2n1 [compound 1064] | > 7.30
Cc1nc2c(C(F)F)nc(C#N)cc2c(=O)n1CCOc1ccc(Cl)cc1-c1cccc(C(=O)O)c1 [compound 33] | 6.00 to 7.30
COc1ccc(OCCn2cnc3cnc(C#N)cc3c2=O)c(-c2cccc(C(=O)O)c2)c1 [compound 124] | < 6.00
Cc1cc2nc(C)n(CCOc3ccc(Cl)cc3-c3cc(C)nc4c(C(=O)O)csc34)c(=O)c2c(C#N)n1 [compound 685] | > 7.30
Cc1cc(-c2cc(Cl)ccc2OCCn2c(C)nc3cc(C(F)(F)F)c(Oc4cccnc4)c(C#N)c3c2=O)c2scc(C(=O)O)c2n1 [compound 1035] | > 7.30
Cc1ccc(-c2cc(Cl)ccc2OCCn2c(C)nc3ccc(CCN(C)C)c(C#N)c3c2=O)c2scc(C(=O)O)c12 [compound 576] | > 7.30
Cc1cc(-c2cc(Cl)ccc2OCCn2c(C)nc3cnc(-c4cc(Cl)ccc4Cl)c(C#N)c3c2=O)c2scc(C(=O)O)c2n1 [compound 954] | > 7.30
Cc1nc2cc(C(F)(F)F)cc(C#N)c2c(=O)n1CCOc1ccc(Cl)cc1-c1ccc(C(=O)O)c2ncsc12 [compound 226] | 6.00 to 7.30
Cc1nc2c(F)cc(C(F)F)c(C#N)c2c(=O)n1CCOc1cc(F)c(Cl)cc1-c1ccnc2c(C(=O)O)csc12 [compound 504] | > 7.30
Cc1nc2cc(Cl)c(Cl)c(C#N)c2c(=O)n1C/C=C/c1ccc(Cl)cc1-c1ccnc2c(C(=O)O)csc12 [compound 256] | 6.00 to 7.30
CS(=O)(=O)c1cc(C(=O)O)cc(-c2cc(Cl)ccc2OCCn2cnc3cnc(C#N)cc3c2=O)c1 [compound 112] | < 6.00
Cc1cccc(-c2c(Cl)cc3nc(C)n(CCOc4ccc(Cl)cc4-c4cc(C)nc5c(C(=O)O)c(C)sc45)c(=O)c3c2C#N)n1 [compound 683] | > 7.30
Cc1cc(-c2cc(Cl)ccc2OCCn2c(C)nc3cc(C(F)(F)F)c(-c4ccncc4)nc3c2=O)c2scc(C(=O)O)c2n1 [compound 464] | > 7.30
Cc1cc(-c2cc(Cl)ccc2OCCn2c(C)nc3cnc(NCC(F)F)c(C#N)c3c2=O)c2scc(C(=O)O)c2n1 [compound 974] | > 7.30
Cc1nc2cc(C(F)(F)F)c(CN(C)C)c(C#N)c2c(=O)n1CCOc1ccc(Cl)cc1-c1ccnc2c(C(=O)O)csc12 [compound 261] | > 7.30
Cc1nc2cc(C(F)(F)F)cc(C#N)c2c(=O)n1CCOc1ccc(Cl)cc1-c1cc(CN)nc2c(C(=O)O)csc12 [compound 452] | > 7.30
Cc1cc(-c2cc(Cl)ccc2OCCn2c(C)nc3cc(OC(F)F)c(CCN(C)C)c(C#N)c3c2=O)c2scc(C(=O)O)c2n1 [compound 592] | > 7.30
Cc1cc(-c2cc(Cl)ccc2OCCn2c(C)nc3cc(C(F)(F)F)c(OCc4ccccn4)c(C#N)c3c2=O)c2scc(C(=O)O)c2n1 [compound 1033] | > 7.30

###

- Test System: recombinant eIF4E (Homo sapiens (Human), UniProt P06730)
- Procedure Summary: Fluorescence polarization competition assay for eIF4E binding potency
- Measurement Conditions: inhibition of eIF4E/EDA-m7GDP-ATTO-550 binding by 50%; Table 4B calculated values; read-out: IC50
Each entry below lists one item and its recorded IC50 value.
Measure Name: IC50

Cc1cc(-c2cc(Cl)ccc2OCCn2c(C)nc3cc(Cl)c(N(C)C(C)(C)C)c(C#N)c3c2=O)c2scc(C(=O)O)c2n1 [compound 955] | 10.2 nM
Cc1nc2ccc(Cl)c(C#N)c2c(=O)n1CCOc1ccc(Cl)cc1-c1ccnc2c(C(=O)O)csc12 [compound 244] | 31.2 nM
Cc1nc2cnc(C3CC3)c(C#N)c2c(=O)n1CCOc1ccc(Cl)cc1Cc1cc(C(=O)O)cs1 [compound 970] | 166 nM
Cc1cc(-c2cc(Cl)ccc2OCCn2c(C)nc3cnc(-c4ccccc4F)c(C#N)c3c2=O)c2scc(C(=O)O)c2n1 [compound 941] | 20 nM
Cc1cc(-c2cc(Cl)ccc2OCCn2c(C)nc3cc(C(F)(F)F)c(-c4cccnc4C)c(C#N)c3c2=O)c2scc(C(=O)O)c2n1 [compound 735] | 58 nM
Cc1cc(-c2nc3c(=O)n(CCOc4ccc(Cl)cc4-c4cc(C)nc5c(C(=O)O)csc45)c(C)nc3cc2C(F)(F)F)ccn1 [compound 463] | 8.86 nM
Cc1cc(-c2cc(Cl)ccc2OCCn2c(C)nc3cc(C(F)(F)F)c(N4CCN(C)CC4)c(C#N)c3c2=O)c2scc(C(=O)O)c2n1 [compound 634] | 5.62 nM
Cc1cc(-c2cc(Cl)ccc2OCCn2c(C)nc3cc(C(F)(F)F)c(C4CCOCC4)c(C#N)c3c2=O)c2scc(C(=O)O)c2n1 [compound 431] | 226 nM
Cc1cc(-c2cc(Cl)ccc2OCCn2c(C)nc3c(C(F)F)ncc(C#N)c3c2=O)c2scc(C(=O)O)c2n1 [compound 372] | 7.34 nM
Cc1cnc(-c2nc3c(=O)n(CCOc4ccc(Cl)cc4-c4cc(C)nc5c(C(=O)O)csc45)c(C)nc3cc2C(F)(F)F)c(C)n1 [compound 1023] | 49.8 nM
Cc1cc(-c2cc(Cl)ccc2OCCn2c(C)nc3c(C)nc(-c4ccccc4F)c(C#N)c3c2=O)c2scc(C(=O)O)c2n1 [compound 476] | 33.9 nM
Cc1cc(-c2cc(Cl)ccc2OCCn2c(C)nc3cnc(OCc4ccccn4)c(C#N)c3c2=O)c2scc(C(=O)O)c2n1 [compound 1039] | 21.7 nM
CCOc1ncc2nc(C)n(CCOc3ccc(Cl)cc3-c3cc(C)nc4c(C(=O)O)csc34)c(=O)c2c1C#N [compound 1067] | 10.5 nM
